tested on: T-47D breast; experiment: NCI tumour cell line growth inhibition, 48 h
test_readout: TGI

Answered cases to consult:
molecule	study_system	test_readout	readout_value
O=C(c1ccccc1)n1c(-c2ccccc2)cs/c1=N\S(=O)(=O)c1ccc(N2N=C3c4ccccc4CC3C2c2cccs2)cc1 (stereo unspecified)	T-47D breast	TGI	> 100 µM
Cc1ccc(S(=O)(=O)N/N=C2/CC3CCC4CC2CC34)cc1 (stereo unspecified)	T-47D breast	TGI	> 100 µM
Cc1cccc(C)c1Nc1nc(C)c(C(=O)CC(=O)C(=O)Nc2c(C(C)C)cccc2C(C)C)s1	T-47D breast	TGI	> 100 µM
C=CCCCCOC1C=CC(O)C(CO)O1 (stereo unspecified)	T-47D breast	TGI	> 100 µM
O=S(=O)(Nc1ccc(F)c(Cl)c1)c1ccc(-c2cnc(C3CC3)o2)cc1	T-47D breast	TGI	13.1 µM
N#C/C(N)=C(\C#N)N=CNc1ccc(N)cc1	T-47D breast	TGI	> 100 µM
COc1ccc(Nc2nc3cc(N)cc(N)c3nc2-c2ccccc2)cc1OC	T-47D breast	TGI	38.2 µM
COc1ccccc1NCc1cccc2c(=O)c3ccc(Cl)cc3oc12	T-47D breast	TGI	> 100 µM

QUERY: Look up and state reported TGI for `Nc1nc(=O)n([C@@H]2CS[C@H](CO)O2)cc1F`
RESULT: > 100 µM

QUERY: Look up and state reported TGI for CCOC(=O)c1cc(C2CCN(c3ccccc3)C2=O)c(C(=O)/C=C(/C)N)[nH]1 (stereo unspecified)
RESULT: > 100 µM

QUERY: Look up and state reported TGI for `CCn1c2ccccc2c2ccc(C3C(C(=O)OC)=C(C)NC(C)=C3C(=O)OC)cc21`
RESULT: > 100 µM

====

tested on: 786-0 renal; assay: NCI tumour cell line growth inhibition, 48 h
Quick reference for TGI among some compounds

Answered cases to consult:
compound	TGI
CC1NC(=O)C2=C1C(N)=NC(=O)C2 (centres undefined)	> 100 µM
CCOC(=O)C1([Se]c2ccccc2)CCCC1=O (centres undefined)	28.4 µM
CC(=O)c1cc(C(=O)c2ccc3c(c2)Sc2ccccc2N3)c2c(C)cccn12	7.29 µM

QUERY: Look up and state reported TGI for `Cc1cn(-c2ccc(S(C)(=O)=O)cc2)c(-c2ccc(Cl)cc2)n1`
RESULT: > 100 µM

QUERY: Look up and state reported TGI for `CC1(C)CC(=O)c2c(nc3c(ccc4ccccc43)c2-c2ccc(NC(=O)CCCCC(=O)Nc3ccc(-c4c5c(nc6c4ccc4ccccc46)CC(C)(C)CC5=O)cc3)cc2)C1`
RESULT: > 100 µM

QUERY: Look up and state reported TGI for `c1ccc(P(=C2c3ccccc3-c3ccccc32)(c2ccccc2)c2ccccc2)cc1`
RESULT: 34 µM

QUERY: Look up and state reported TGI for `Cc1cc(Nc2cc(N3CCN(C)CC3)nc(Sc3ccc(NC(=O)C4CC4)cc3)n2)n[nH]1`
RESULT: > 10 µM

QUERY: Look up and state reported TGI for COC(=O)[C@@H]1CC(C(CN)c2cn(C(=O)OC(C)(C)C)c3ccccc23)C(=O)N1C(=O)OC(C)(C)C (some centres undefined)
RESULT: > 100 µM

QUERY: Look up and state reported TGI for `CC1C2=C(CCCC2=O)N(c2ccc(Cl)cc2)C2=C1C(=O)CCC2`
RESULT: > 100 µM
